Biological target: NEK7 (Homo sapiens (Human), UniProt Q8TDX7+Q96SW2)
Sequence (Q8TDX7 whole entry): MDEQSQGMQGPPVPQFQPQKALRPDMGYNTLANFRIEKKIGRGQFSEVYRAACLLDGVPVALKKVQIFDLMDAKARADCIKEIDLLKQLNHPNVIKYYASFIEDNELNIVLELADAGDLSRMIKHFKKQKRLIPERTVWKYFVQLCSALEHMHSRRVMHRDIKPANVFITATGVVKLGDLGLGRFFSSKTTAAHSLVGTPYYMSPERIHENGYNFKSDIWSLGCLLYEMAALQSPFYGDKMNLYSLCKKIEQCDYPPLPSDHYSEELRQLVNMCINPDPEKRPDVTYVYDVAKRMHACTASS
Sequence (Q96SW2 whole entry): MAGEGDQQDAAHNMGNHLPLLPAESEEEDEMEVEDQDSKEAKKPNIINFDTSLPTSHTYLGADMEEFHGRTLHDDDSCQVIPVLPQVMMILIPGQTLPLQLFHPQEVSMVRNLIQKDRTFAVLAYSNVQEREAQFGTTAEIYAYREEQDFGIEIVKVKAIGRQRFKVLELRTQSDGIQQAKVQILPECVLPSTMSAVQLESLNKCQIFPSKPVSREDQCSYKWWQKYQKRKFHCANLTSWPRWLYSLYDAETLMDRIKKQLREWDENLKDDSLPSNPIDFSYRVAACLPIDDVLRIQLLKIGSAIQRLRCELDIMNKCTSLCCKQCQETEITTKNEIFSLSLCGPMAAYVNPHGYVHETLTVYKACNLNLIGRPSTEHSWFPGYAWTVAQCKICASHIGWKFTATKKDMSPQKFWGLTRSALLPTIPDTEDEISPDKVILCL
Sequence (Q16531 2-1140 partner): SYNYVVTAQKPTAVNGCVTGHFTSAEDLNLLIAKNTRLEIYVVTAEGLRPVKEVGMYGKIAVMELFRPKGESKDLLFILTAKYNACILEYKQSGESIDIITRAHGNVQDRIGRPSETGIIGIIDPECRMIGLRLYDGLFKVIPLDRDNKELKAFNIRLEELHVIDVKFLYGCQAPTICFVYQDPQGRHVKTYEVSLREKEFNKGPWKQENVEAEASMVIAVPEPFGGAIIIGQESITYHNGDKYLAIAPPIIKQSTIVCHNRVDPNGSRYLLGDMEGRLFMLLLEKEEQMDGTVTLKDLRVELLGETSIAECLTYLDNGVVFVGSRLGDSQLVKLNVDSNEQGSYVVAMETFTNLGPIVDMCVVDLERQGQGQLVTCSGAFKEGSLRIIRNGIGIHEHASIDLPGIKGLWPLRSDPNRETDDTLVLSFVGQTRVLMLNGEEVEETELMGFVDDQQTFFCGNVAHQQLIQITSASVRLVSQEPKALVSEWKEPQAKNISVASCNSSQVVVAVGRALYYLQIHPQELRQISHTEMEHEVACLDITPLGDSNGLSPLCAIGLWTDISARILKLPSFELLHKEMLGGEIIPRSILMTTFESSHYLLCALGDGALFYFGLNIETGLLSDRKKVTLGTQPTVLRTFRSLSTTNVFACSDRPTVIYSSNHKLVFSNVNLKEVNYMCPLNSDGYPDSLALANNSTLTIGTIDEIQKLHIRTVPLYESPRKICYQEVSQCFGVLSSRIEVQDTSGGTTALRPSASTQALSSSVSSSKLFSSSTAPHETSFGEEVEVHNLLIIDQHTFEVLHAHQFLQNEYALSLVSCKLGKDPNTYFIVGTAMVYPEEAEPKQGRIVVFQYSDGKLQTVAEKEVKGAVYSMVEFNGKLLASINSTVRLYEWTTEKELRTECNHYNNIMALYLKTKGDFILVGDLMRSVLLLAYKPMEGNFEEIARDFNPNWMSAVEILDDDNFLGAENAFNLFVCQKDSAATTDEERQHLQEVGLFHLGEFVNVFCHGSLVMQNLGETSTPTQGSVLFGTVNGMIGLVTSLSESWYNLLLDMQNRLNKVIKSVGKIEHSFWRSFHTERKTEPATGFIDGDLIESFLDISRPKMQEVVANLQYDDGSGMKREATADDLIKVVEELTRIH
Test: NEK7 NanoBiT degradation assay in Cal51 NEK7 NanoBiT cell line
Format: cell-based
Conditions: Cal51 NEK7 NanoBiT cells, 24 hours; read-out: NEK7 NanoBiT DC50
Decision: DC50 beneath 20 nM gives Condition met; DC50 meeting or exceeding 20 nM gives Condition not met.

Is DC50 strictly under 20 nM for the entry CC(C)(C(=O)NCc1cc(Cl)c(C2CCC(=O)NC2=O)c(Cl)c1)c1cc(C(F)(F)F)on1 (centres unmarked) [Compound 230] ?
Condition not met

is_below(DC50, 20 nM) for Cc1cnc(C(C)(C)C(=O)NCc2cc(Cl)c(C3CCC(=O)NC3=O)c(Cl)c2)o1 (centres unmarked) [Compound 163] ?
Condition met

For CC(C)(C(=O)NCc1cc(F)c(C2CCC(=O)NC2=O)c(Cl)c1)c1ccccc1 (centres unmarked) [Compound 31] , is the recorded DC50 below the cut-off of 20 nM?
Condition met

Strictly below 20 nM: is that where DC50 of CC(C)(C(=O)NCc1cc(Cl)c(C2CCC(=O)NC2=O)c(Cl)c1)c1ccc(OC(F)F)nn1 (centres unmarked) [Compound 210] sits?
Condition met

# check: DC50 < 20 nM for Cn1cc(C(C)(C)C(=O)NCc2cc(Cl)c(C3CCC(=O)NC3=O)c(Cl)c2)ccc1=O (centres unmarked) [Compound 67]
Condition not met

Hi there! Is DC50 for CNS(=O)(=O)c1ccc(C(C)(C)C(=O)NCc2cc(Cl)c(C3CCC(=O)NC3=O)c(Cl)c2)cc1 (centres unmarked) [Compound 61] below 20 nM, do you know?
Condition met

Input CC(C)(C(=O)NCc1ccc(C2CCC(=O)NC2=O)c(Cl)c1)c1ccc(OC(F)(F)F)cc1 (centres unmarked) [Compound 100] ; condition: DC50 strictly below 20 nM. Does it hold?
Condition not met

Please let me know if CC(C)(C(=O)NCc1cc(Cl)c(C2CCC(=O)NC2=O)c(Cl)c1)c1nc(C(F)F)no1 (centres unmarked) [Compound 219] shows DC50 below 20 nM.
Condition not met

----------
Give pEC50 for every item shown.
Biological target: CRBN-DDB1 (Homo sapiens (Human), UniProt Q96SW2)
Sequence (Q96SW2 whole entry): as the sequence (Q96SW2 whole entry) above
Sequence (Q16531 whole entry partner): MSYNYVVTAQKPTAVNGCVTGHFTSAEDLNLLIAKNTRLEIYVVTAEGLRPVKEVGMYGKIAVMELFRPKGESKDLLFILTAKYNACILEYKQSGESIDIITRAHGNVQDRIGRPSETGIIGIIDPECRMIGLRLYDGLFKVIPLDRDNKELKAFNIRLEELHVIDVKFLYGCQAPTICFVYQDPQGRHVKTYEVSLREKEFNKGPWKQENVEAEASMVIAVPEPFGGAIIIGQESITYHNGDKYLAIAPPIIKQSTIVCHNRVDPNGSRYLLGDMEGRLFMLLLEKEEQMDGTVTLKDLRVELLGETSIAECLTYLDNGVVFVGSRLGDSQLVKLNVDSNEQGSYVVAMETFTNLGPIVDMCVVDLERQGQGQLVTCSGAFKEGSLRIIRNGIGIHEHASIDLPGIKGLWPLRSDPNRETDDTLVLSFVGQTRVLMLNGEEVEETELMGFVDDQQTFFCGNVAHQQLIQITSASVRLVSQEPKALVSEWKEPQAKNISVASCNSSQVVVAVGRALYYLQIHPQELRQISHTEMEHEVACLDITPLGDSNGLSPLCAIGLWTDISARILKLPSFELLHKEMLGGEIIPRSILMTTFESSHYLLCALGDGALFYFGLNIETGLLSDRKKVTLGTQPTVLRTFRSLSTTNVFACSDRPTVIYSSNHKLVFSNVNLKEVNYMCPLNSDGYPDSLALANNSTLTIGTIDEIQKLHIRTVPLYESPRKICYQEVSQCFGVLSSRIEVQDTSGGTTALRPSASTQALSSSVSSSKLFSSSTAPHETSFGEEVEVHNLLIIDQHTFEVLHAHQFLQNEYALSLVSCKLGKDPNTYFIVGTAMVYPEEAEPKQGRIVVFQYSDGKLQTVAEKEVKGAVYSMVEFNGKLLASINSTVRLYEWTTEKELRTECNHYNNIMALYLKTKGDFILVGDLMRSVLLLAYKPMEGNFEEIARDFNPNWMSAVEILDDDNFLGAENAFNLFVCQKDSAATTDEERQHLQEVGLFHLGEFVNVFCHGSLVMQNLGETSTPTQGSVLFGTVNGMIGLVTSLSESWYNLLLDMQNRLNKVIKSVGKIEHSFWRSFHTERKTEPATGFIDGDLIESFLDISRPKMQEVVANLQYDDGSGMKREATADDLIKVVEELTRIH
Assay: Compound binding to CRBN by HTRF assay
Details: HTRF class; Cereblon binding
pEC50: −log10 of the molar value.

Cc1cnc(C(C)(CO)C(=O)NCc2cc(Cl)c(C3CCC(=O)NC3=O)c(Cl)c2)nc1 (centres unmarked) has a reported pEC50 of 6.00 to 7.00

Briefly, pEC50 measured for Cc1cnc(C(C)(C)C(=O)NCc2cc(F)c(C3CCC(=O)NC3=O)c(Cl)c2)nc1 (centres unmarked) : 6.00 to 7.00

pEC50 measured on CC(C)(C(=O)NCc1cc(Cl)c(C2CCC(=O)NC2=O)c(Cl)c1)c1nc(C2CC2)co1 (centres unmarked) = ≥ 7.00

Given item CC(C)(C(=O)NCc1cc(Cl)c(C2CCC(=O)NC2=O)c(Cl)c1)c1ccc2ocnc2c1 (centres unmarked) , the value recorded as its pEC50 is ≥ 7.00

For record CC(C)(C(=O)NCc1cc(Cl)c(C2CCC(=O)NC2=O)c(Cl)c1)c1ncco1 (centres unmarked) the listed pEC50 is 6.00 to 7.00

What the record says about O=C1CCC(c2c(Cl)cc(CNC(=O)C3(c4ccncc4)CCCC3)cc2Cl)C(=O)N1 (centres unmarked) : pEC50 is ≥ 7.00

pEC50 in this record for Cc1cnc(C(C)(C)C(=O)NCc2cc(Cl)c(C3CCC(=O)NC3=O)c(Cl)c2)o1 (centres unmarked) : 6.00 to 7.00

Summary for this compound, CC(C)(C(=O)NCc1cc(F)c(C2CCC(=O)NC2=O)c(Cl)c1)c1ccc(C(F)F)nn1 (centres unmarked) : pEC50 is 6.00 to 7.00

----------
What log10(DC50) was measured for each of the following?
Target: NEK7 (Homo sapiens (Human), UniProt Q8TDX7+Q96SW2)
Test: NEK7 NanoBiT degradation assay in Cal51 NEK7 NanoBiT cell line
Format: cell-based
Conditions: Cal51 NEK7 NanoBiT cells, 24 hours; read-out: NEK7 NanoBiT DC50
The common logarithm of DC50 in µM is what is listed.

Sample CC(C)(C(=O)NCc1cc(F)c(C2CCC(=O)NC2=O)c(Cl)c1)c1nocc1C(F)(F)F (stereo not drawn) ; log10(DC50) observed: -1.12

Field log10(DC50) (entry COCc1nc(C(C)(C)C(=O)NCc2cc(Cl)c(C3CCC(=O)NC3=O)c(Cl)c2)ncc1C (stereo not drawn) ) reads -1.54

Documented log10(DC50) of Cc1cnc(C(C)(C)C(=O)NCc2cc(Cl)c([C@@H]3CCC(=O)NC3=O)c(Cl)c2)nc1 (single isomer, unassigned) : -2.40

Reported log10(DC50) ( CC(C)(C(=O)NCc1cc(Cl)c(C2CCC(=O)NC2=O)c(Cl)c1)c1ccc(=O)[nH]c1 (stereo not drawn) ) = -1.04

Field log10(DC50) (entry CC(C)(C(=O)NCc1cc(Cl)c(C2CCC(=O)NC2=O)c(Cl)c1)c1ccc(C(N)=O)cc1 (stereo not drawn) ) reads -2.15

Lab book: log10(DC50) of CC(C)(C(=O)NCc1cc(Cl)c(C2CCC(=O)NC2=O)c(Cl)c1)c1ccnc(C(F)F)n1 (stereo not drawn) noted as -0.36

In plain terms, CC(C)(C(=O)NCc1cc(F)c(C2CCC(=O)NC2=O)c(Cl)c1)c1ccc(OCC(F)F)nc1 (stereo not drawn) has a documented log10(DC50) of -3.00

The compound CC(C)(O)c1cnc(C(C)(C)C(=O)NCc2cc(Cl)c(C3CCC(=O)NC3=O)c(Cl)c2)cn1 (stereo not drawn) showed log10(DC50) equal to -0.82

Entry CC(C)(C(=O)NCc1cc(Cl)c(C2CCC(=O)NC2=O)c(Cl)c1)c1ncccn1 (stereo not drawn) — recorded log10(DC50) = -1.55

The value of log10(DC50) measured for the compound CC(C)(C(=O)NCc1cc(Cl)c(C2CCC(=O)NC2=O)c(Cl)c1)c1ccsc1 (stereo not drawn) turned out to be -2.52

Looking up O=C1CCC(c2c(Cl)cc(CNC(=O)C3(c4ccc(F)cc4)CCOCC3)cc2Cl)C(=O)N1 (stereo not drawn) , I see its log10(DC50) listed as -2.52

response.value for [2H]C([2H])([2H])C(C(=O)NCc1cc(Cl)c(C2CCC(=O)NC2=O)c(Cl)c1)(c1ncc(C)cn1)C([2H])([2H])[2H] (stereo not drawn) (field: log10(DC50)) = -1.96

Value of log10(DC50) reported for the compound CC(C)(C(=O)NCc1cc(Cl)c(C2CCC(=O)NC2=O)c(Cl)c1)c1ccc2ncsc2c1 (stereo not drawn) is -3.00

Field log10(DC50) (entry CC(C)(C(=O)NCc1cc(Cl)c(C2CCC(=O)NC2=O)c(Cl)c1)c1ncc(C2CC2)cn1 (stereo not drawn) ) reads -2.05

log10(DC50) recorded for this compound, CC(C)(C(=O)NCc1cc(F)c(C2CCC(=O)NC2=O)c(Cl)c1)c1ccc(OC(F)(F)F)nn1 (stereo not drawn) , is -0.51

----------
Biological target: CRBN-DDB1 (Homo sapiens (Human), UniProt Q96SW2)
Experiment: Compound binding to CRBN by HTRF assay
Can you tell me EC50 for the items I'm about to list?
Number in nM, nothing else.

Per the record, CC(C)(C(=O)NCc1cc(F)c(C2CCC(=O)NC2=O)c(Cl)c1)c1ccncc1 (stereo not shown) [Compound 106] has EC50 of 240

// field: EC50; key: COCc1nc(C(C)(C)C(=O)NCc2cc(Cl)c(C3CCC(=O)NC3=O)c(Cl)c2)ncc1C (stereo not shown) [Compound 233] ; value = 190

Field EC50 (entry CC(C)(C(=O)NCc1cc(Cl)c(C2CCC(=O)NC2=O)c(Cl)c1)c1nccc(C(F)F)n1 (stereo not shown) [Compound 182] ) reads 200

// EC50 value for CC(C)(C(=O)NCc1cc(Cl)c(C2CCC(=O)NC2=O)c(Cl)c1)c1ccno1 (stereo not shown) [Compound 120] : 100

----------
Biological target: NEK7 (Homo sapiens (Human), UniProt Q8TDX7+Q96SW2)
Assay: NEK7 NanoBiT degradation assay in Cal51 NEK7 NanoBiT cell line
Type: cell-based
Conditions: CAL-51; Cal51 NEK7 NanoBiT cells, 24 hours; read-out: NEK7 NanoBiT Dmax
I'd be grateful if you could share measured Dmax for these entries.
# value in %; strip the unit string

Dmax in this record for Cc1cnc(C(C)(C)C(=O)NCc2cc(Cl)c([C@H]3CCC(=O)NC3=O)c(Cl)c2)nc1 (single isomer, unassigned) : 75

The compound listed as O=C1CCC(c2c(Cl)cc(CNC(=O)C3(c4ccnc(F)c4)CC(F)(F)C3)cc2Cl)C(=O)N1 (stereo not drawn) shows Dmax equal to 65

Form field Dmax, entry Cc1cncc(C(C)(C)C(=O)NCc2cc(Cl)c(C3CCC(=O)NC3=O)c(Cl)c2)n1 (stereo not drawn) : 60

Field Dmax (entry COCc1cnc(C(C)(C)C(=O)NCc2cc(Cl)c(C3CCC(=O)NC3=O)c(Cl)c2)cn1 (stereo not drawn) ) reads 73

Per the records, this compound ( CC(C)(C(=O)NCc1cc(Cl)c(C2CCC(=O)NC2=O)c(Cl)c1)C1CCCCC1 (stereo not drawn) ) has Dmax equal to 90

The reported value for CC(C)(C(=O)NCc1cc(F)c(C2CCC(=O)NC2=O)c(Cl)c1)c1ccc(OC(F)F)nn1 (stereo not drawn) in terms of Dmax is 79

Record summary for Cc1cc(C(C)(C)C(=O)NCc2cc(Cl)c(C3CCC(=O)NC3=O)c(Cl)c2)cc(=O)[nH]1 (stereo not drawn) : reported Dmax = 93

For reference, reported Dmax for CC(C)(C(=O)NCc1cc(Cl)c(C2CCC(=O)NC2=O)c(Cl)c1)c1cnc2ncsc2c1 (stereo not drawn) stands at 67

Recorded Dmax (compound CC(C)(C(=O)NCc1cc(Cl)c(C2CCC(=O)NC2=O)c(Cl)c1)c1ccc(S(N)(=O)=O)c(F)c1 (stereo not drawn) ): 97

The value of Dmax measured for the compound Cc1cnc(C(C)(C)C(=O)NCc2cc(F)c(C3CCC(=O)NC3=O)c(Cl)c2)o1 (stereo not drawn) turned out to be 72

Data point: CC(C)(C(=O)NCc1cc(Cl)c(C2CCC(=O)NC2=O)c(Cl)c1)c1ccon1 (stereo not drawn) ; Dmax = 80

Entry COc1nccc(C(C)(C)C(=O)NCc2cc(Cl)c(C3CCC(=O)NC3=O)c(Cl)c2)n1 (stereo not drawn) ; Dmax = 71

The value of Dmax measured for the compound Cn1c(=O)[nH]c2cc(C(C)(C)C(=O)NCc3cc(Cl)c(C4CCC(=O)NC4=O)c(Cl)c3)ccc21 (stereo not drawn) turned out to be 90

Briefly, Dmax measured for CC(C)(C(=O)NCc1cc(Cl)c(C2CCC(=O)NC2=O)c(C#N)c1)c1ccccc1 (stereo not drawn) : 59

For reference, reported Dmax for Cc1coc(C(C)(C)C(=O)NCc2cc(Cl)c(C3CCC(=O)NC3=O)c(Cl)c2)n1 (stereo not drawn) stands at 87
